Test system: AncSZ
assay.name: phosphorylation enrichment, bacterial display (enrichment ratio); higher = better substrate or ligand; peptides without Tyr show the background;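 also: 11-residue human phosphosite peptides and single-mutation variants displayed on the E. coli surface, counted by deep sequencing, each peptide's frequency after selection divided by its frequency in the unselected input library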;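 also: frequency after pTyr selection over input frequency; kinase dosed for 20-30% of maximal phosphorylation in three min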
Each record here notes measured phosphorylation enrichment.
Reply briefly: the number, and no unit.

> print(dat)
                         seq           property.measured  experimental.value
1  GQAPGYSFTAA [CYCS_Y47_YF]  phosphorylation enrichment               0.502

# input sequence: VTAALYGCLYE [BTD_Y536_R538C] ; wanted: its phosphorylation enrichment
1.34

Subsequent entry: PADCRYFTFPQ [GAMT_Y222_A224T_YF]
1.1

###

tested.system: Fyn (UniProt P06241)
Sequence (P06241 whole entry, looked up): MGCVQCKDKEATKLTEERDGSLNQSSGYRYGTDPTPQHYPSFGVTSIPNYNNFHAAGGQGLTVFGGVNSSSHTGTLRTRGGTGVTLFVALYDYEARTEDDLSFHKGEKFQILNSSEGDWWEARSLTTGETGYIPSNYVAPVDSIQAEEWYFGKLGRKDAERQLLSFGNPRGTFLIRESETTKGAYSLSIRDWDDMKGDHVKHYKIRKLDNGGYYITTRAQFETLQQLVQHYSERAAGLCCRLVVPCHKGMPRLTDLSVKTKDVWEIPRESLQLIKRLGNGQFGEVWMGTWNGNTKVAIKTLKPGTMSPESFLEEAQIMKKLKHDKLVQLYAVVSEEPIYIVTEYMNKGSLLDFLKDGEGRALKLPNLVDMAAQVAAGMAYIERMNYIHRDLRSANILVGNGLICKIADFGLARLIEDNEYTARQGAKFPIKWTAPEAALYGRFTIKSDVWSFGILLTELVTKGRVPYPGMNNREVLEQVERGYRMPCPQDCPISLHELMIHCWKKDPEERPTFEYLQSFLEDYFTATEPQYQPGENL
assay.name: phosphorylation enrichment, bacterial display (enrichment ratio); higher = better substrate or ligand; peptides without Tyr show the background
Mark false (0) for phosphorylation enrichment values under 0.6, and true (1) for everything at or above.

The examples below pair each entry with its known result.
> print(dat)
                               seq         tested.system  class.assignment
1       EIELAYRRRPP [GRIN2B_Y1109]  Fyn (UniProt P06241)         false (0)
2           KDQGTYEDYVE [MYL6_Y86]  Fyn (UniProt P06241)          true (1)
3  QKKPCYEIRWK [PDGFRB_Y562_R561C]  Fyn (UniProt P06241)          true (1)
4       VKANTYEKFWP [GATM_Y100_YF]  Fyn (UniProt P06241)          true (1)
5  NTILLYHIMAW [GPR143_Y157_S152N]  Fyn (UniProt P06241)          true (1)

Okay, now this sequence:
Item YSKDIYKRVTG [PANK2_Y405_N404I] with phosphorylation enrichment of 0.6 or above?
false (0)

###

System: Fer (mouse)
assay.name: phosphorylation enrichment, bacterial display (enrichment ratio); higher = better substrate or ligand; peptides without Tyr show the background
property.measured: phosphorylation enrichment
Reply briefly: the number, and no unit.

> print(dat)
                                   seq           property.measured  experimental.value
 1                         PKDSAYVTWEP  phosphorylation enrichment                 2.5
 2      DPGVSYHTREE [PDHA1_Y301_R302H]  phosphorylation enrichment               0.383
 3  RFVSRYIFNRE [HLA-DQB1_Y62_T60S_YF]  phosphorylation enrichment               0.976
 4         ALDRPYTSKHS [NANS_Y71_E68D]  phosphorylation enrichment               0.474
 5       LRVHSYKSMQH [DRC7_Y516_P521H]  phosphorylation enrichment               0.949
 6          RDLEQYVNNVN [PCDH19_Y1097]  phosphorylation enrichment               0.356
 7        SRNKPYISWPS [CDC42BPB_Y1638]  phosphorylation enrichment               0.345
 8         ATGGFYSFGGG [KRT24_Y120_YF]  phosphorylation enrichment                2.46
 9          FRIDHYLGKEM [G6PD_Y202_YF]  phosphorylation enrichment                0.41
10       SSTASYFKAPG [RFX2_Y108_E110K]  phosphorylation enrichment               0.339

# input sequence: IGEGTSGVVYK [CDK2_Y15_Y15S] ; wanted: its phosphorylation enrichment
0.339

Subsequent entry: ADRSCYDLSCR [GARS1_Y467_H472R]
0.474

Subsequent entry: SSQHRYSTPHA [RAF1_Y232]
0.365
